B1: Pistol ribozyme (parent)
chain: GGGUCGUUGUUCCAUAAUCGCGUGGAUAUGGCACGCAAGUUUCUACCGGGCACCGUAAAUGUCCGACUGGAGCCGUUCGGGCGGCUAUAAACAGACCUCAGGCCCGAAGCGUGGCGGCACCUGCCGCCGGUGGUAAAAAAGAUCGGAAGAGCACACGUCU

Variants of: B1
methodNotes: aptazyme ON/OFF ratio, guanine; higher = stronger switching; co-transcriptional cleavage with and without guanine
measuredParameter: aptazyme ON/OFF ratio
Please respond with just the number, no unit label.

residueChange: U7A U8G G9A U10G U11G C12U C13G
numericReadout: 1
//
residueChange: U7G U8C G9U U10C U11A C13A
numericReadout: 1.49
//
residueChange: U7G U8C G9U U10G C12U
numericReadout: 1.25
//
residueChange: U7G U8A G9A U10A U11C C12G C13A
numericReadout: 1.11

Lab book: aptazyme ON/OFF ratio of U8G G9A U10G U11G C12A C13A noted as 1.57

Lab book: aptazyme ON/OFF ratio of U8C G9C U11G C12A C13U noted as 1.1

Lab book: aptazyme ON/OFF ratio of G9C U10A C13A noted as 1.3

Lab book: aptazyme ON/OFF ratio of U7A U8G G9C U10C U11C C12U C13U noted as 1.01
